# Method notes: Pharmacokinetics in beagle dogs (single doses)
# Format: in vivo
# Condition label: beagle, plasma; 1-compartmental model analysis of in vivo data in dog; read-out: CL (Dog) (converted)
Measure: clearance (mL/min/kg)

Compound | Measure | Result units | Assay value
Cn1cc(S(=O)(=O)[C@@](C)(F)C2CCN(C(=O)Nc3ccon3)CC2)c(C(F)F)n1 [Compound I] | clearance | mL/min/kg | 1.58

====

# Method notes: Single ascending oral dose study in healthy volunteers: plasma pharmacokinetics
# Type: in vivo, human
# Condition label: human, plasma, oral, 3 mg; read-out: Mean Residence Time, Geometric Mean
Measure: MRT (h)

Compound | Assay value
Cn1cc(S(=O)(=O)[C@@](C)(F)C2CCN(C(=O)Nc3ccon3)CC2)c(C(F)F)n1 [Compound I] | 17.3

====

# Method notes: Single ascending oral dose study in healthy volunteers: plasma pharmacokinetics
# Assay type: in vivo, human
# Condition label: human, plasma, oral, 10 mg; read-out: AUC0-∞, Geometric Mean

Molecule | AUC(0-inf)
Cn1cc(S(=O)(=O)[C@@](C)(F)C2CCN(C(=O)Nc3ccon3)CC2)c(C(F)F)n1 [Compound I] | 3350 ng·h/mL

====

# Method notes: Single ascending oral dose study in healthy volunteers: plasma pharmacokinetics
# Format: in vivo, human
# Condition label: human, plasma, oral, 100 mg; read-out: Vz/F, Median

Compound | Result units | Vd/F
Cn1cc(S(=O)(=O)[C@@](C)(F)C2CCN(C(=O)Nc3ccon3)CC2)c(C(F)F)n1 | L | 82.1

====

# Method notes: HFrEF study Part 1 (SAD Cohorts 1 and 2): plasma pharmacokinetics
# Assay type: in vivo, human
# Condition label: human, plasma, oral, 525 mg, SAD Cohort 1, 525 mg (n = 2); read-out: AUC0-24

Compound | AUC(0-t) / ng·h/mL
Cn1cc(S(=O)(=O)[C@@](C)(F)C2CCN(C(=O)Nc3ccon3)CC2)c(C(F)F)n1 | 54000

====

# Method notes: Food effect cross-over study, 200 mg (25 mg tablets), healthy volunteers: plasma pharmacokinetics
# Assay type: in vivo, human
# Condition label: human, plasma, oral, 5 hours postdose, Fasted, read-out: Plasma concentration, Median

Compound | concentration at 5 h (ng/mL)
Cn1cc(S(=O)(=O)[C@@](C)(F)C2CCN(C(=O)Nc3ccon3)CC2)c(C(F)F)n1 | 2400

====

# Method notes: Single ascending oral dose study in healthy volunteers: plasma pharmacokinetics
# Type: in vivo, human
# Condition label: human, plasma, oral, 350 mg; read-out: AUC0-24, Median

Compound | AUC(0-t) (ng·h/mL)
Cn1cc(S(=O)(=O)[C@@](C)(F)C2CCN(C(=O)Nc3ccon3)CC2)c(C(F)F)n1 [Compound I] | 45000

====

# Method notes: Single ascending oral dose study in healthy volunteers: urinary excretion and renal clearance
# Assay type: in vivo, human
# Condition label: human, plasma and urine, po, 350 mg, 350 mg dose group; read-out: renal clearance, mean (SD) (converted)
Measure: CL renal (mL/min)

Compound | Assay value
Cn1cc(S(=O)(=O)[C@@](C)(F)C2CCN(C(=O)Nc3ccon3)CC2)c(C(F)F)n1 | 5.55

====

# Method notes: Single ascending oral dose study in healthy volunteers: plasma pharmacokinetics
# Type: in vivo, human
# Condition label: human, plasma, oral, 72 Hours Postdose; 350 mg + 525 mg; read-out: Plasma concentration, Median
Measure: concentration at 72 h (ng/mL)

Compound | Measure | Result units | Assay value
Cn1cc(S(=O)(=O)[C@@](C)(F)C2CCN(C(=O)Nc3ccon3)CC2)c(C(F)F)n1 [Compound I] | concentration at 72 h | ng/mL | 122

====

# Method notes: Single ascending oral dose study in healthy volunteers: plasma pharmacokinetics
# Assay type: in vivo, human
# Condition label: human, plasma, oral, 175 mg; read-out: Tmax, Mean

Compound | Tmax / h
Cn1cc(S(=O)(=O)[C@@](C)(F)C2CCN(C(=O)Nc3ccon3)CC2)c(C(F)F)n1 | 5.11

====

# Method notes: Single ascending oral dose study in healthy volunteers: plasma pharmacokinetics
# Format: in vivo, human
# Condition label: human, plasma, oral, 350 mg, 72 Hours Postdose; 350 mg; read-out: Plasma concentration, Median

Compound | concentration at 72 h, ng/mL
Cn1cc(S(=O)(=O)[C@@](C)(F)C2CCN(C(=O)Nc3ccon3)CC2)c(C(F)F)n1 | 111

====

# Method notes: Food effect cross-over study, 200 mg (25 mg tablets), healthy volunteers: plasma pharmacokinetics
# Format: in vivo, human
# Condition label: human, plasma, oral, 5 hours postdose, Fed, read-out: Plasma concentration, Median
Measure: concentration at 5 h

Compound | Measure | Assay value
Cn1cc(S(=O)(=O)[C@@](C)(F)C2CCN(C(=O)Nc3ccon3)CC2)c(C(F)F)n1 | concentration at 5 h | 3340 ng/mL

====

# Method notes: HFrEF study Part 2 (MAD Cohorts A-D): plasma pharmacokinetics
# Format: in vivo, human
# Condition label: human, plasma, oral, 50 mg, MAD Cohort B, 50 mg BID (with food); Mean; read-out: Cmax, Day 1
# Source text: This was a randomized, parallel-group, DB, placebo-controlled, adaptive design, sequential ascending (oral) multiple-close study in stable patients with heart failure. Four MAD Cohorts (A, B, C, D) were enrolled (FIG. 5B). An SRC reviewed results from each cohort and determined the close and confirmed initial sample size for the subsequent cohort. […]

Compound | Cmax
Cn1cc(S(=O)(=O)[C@@](C)(F)C2CCN(C(=O)Nc3ccon3)CC2)c(C(F)F)n1 | 806 ng/mL

====

# Method notes: HFrEF study Part 1 (SAD Cohorts 1 and 2): plasma pharmacokinetics
# Type: in vivo, human
# Condition label: human, plasma, oral, 350 mg, SAD Cohort 1, 4th dose 350 mg (n = 1)
Measure: Tmax (h)

Compound | Assay value
Cn1cc(S(=O)(=O)[C@@](C)(F)C2CCN(C(=O)Nc3ccon3)CC2)c(C(F)F)n1 | 4.05

====

# Method notes: Single ascending oral dose study in healthy volunteers: plasma pharmacokinetics
# Format: in vivo, human
# Condition label: human, plasma, oral, 100 mg; read-out: AUC0-24, Geometric Mean
# Excerpt: This example describes the first-in-human study of Compound I. Based on its mechanism of action, Compound I may offer a targeted therapy for patients with DCM caused by genetic or nongenetic mechanisms. […] The concentrations of Compound I in human plasma and urine were quantitated by high performance liquid chromatography with tandem mass spectrometric detection (LC MS/MS) (Biological sample analysis study report Alturas AD17-726). […]

Compound | Result units | AUC(0-t)
Cn1cc(S(=O)(=O)[C@@](C)(F)C2CCN(C(=O)Nc3ccon3)CC2)c(C(F)F)n1 | µg·h/mL | 15.2

====

# Method notes: Single ascending oral dose study in healthy volunteers: plasma pharmacokinetics
# Assay type: in vivo, human
# Condition label: human, plasma, oral, 525 mg; read-out: AUC0-∞, Median
Measure: AUC(0-inf) (ng·h/mL)

Compound | Assay value
Cn1cc(S(=O)(=O)[C@@](C)(F)C2CCN(C(=O)Nc3ccon3)CC2)c(C(F)F)n1 | 68800

====

# Method notes: Single ascending oral dose study in healthy volunteers: plasma pharmacokinetics
# Format: in vivo, human
# Condition label: human, plasma, oral, 25 mg, 24 Hours Postdose; 25 mg; read-out: Plasma concentration, Mean

Compound | concentration at 24 h / ng/mL
Cn1cc(S(=O)(=O)[C@@](C)(F)C2CCN(C(=O)Nc3ccon3)CC2)c(C(F)F)n1 | 118

====

# Method notes: Food effect cross-over study, 200 mg (25 mg tablets), healthy volunteers: plasma pharmacokinetics
# Assay type: in vivo, human
# Condition label: human, plasma, po, single 200 mg oral dose, Fasted (N = 10), read-out: MRT, Mean

Compound | MRT
Cn1cc(S(=O)(=O)[C@@](C)(F)C2CCN(C(=O)Nc3ccon3)CC2)c(C(F)F)n1 | 22.6 h

====

# Method notes: Single ascending oral dose study in healthy volunteers: plasma pharmacokinetics
# Type: in vivo, human
# Condition label: human, plasma, oral, 3 mg, 72 Hours Postdose; 3 mg; read-out: Plasma concentration, Median
# Description: This example describes the first-in-human study of Compound I. Based on its mechanism of action, Compound I may offer a targeted therapy for patients with DCM caused by genetic or nongenetic mechanisms. […] The concentrations of Compound I in human plasma and urine were quantitated by high performance liquid chromatography with tandem mass spectrometric detection (LC MS/MS) (Biological sample analysis study report Alturas AD17-726). […]

Compound | Result units | concentration at 72 h
Cn1cc(S(=O)(=O)[C@@](C)(F)C2CCN(C(=O)Nc3ccon3)CC2)c(C(F)F)n1 | ng/mL | 0.449

====

# Method notes: Single ascending oral dose study in healthy volunteers: plasma pharmacokinetics
# Format: in vivo, human
# Condition label: human, plasma, oral, 100 mg; read-out: Half-Life Lambda Z, Geometric Mean (converted)

Molecule | half-life (h)
Cn1cc(S(=O)(=O)[C@@](C)(F)C2CCN(C(=O)Nc3ccon3)CC2)c(C(F)F)n1 [Compound I] | 11.1
